Ref: patent US20200317776A1

Biological target: T1, human TREM2 expressed on cells (human, UniProt Q9NZC2 19-230)
T1 construct: BW5147.G.1.4 cells stably expressing human TREM2 together with Dap12, or endogenous TREM2 of primary human myeloid cells; also called huT2 BW; hTREM2 expressing cell line
T1 sequence: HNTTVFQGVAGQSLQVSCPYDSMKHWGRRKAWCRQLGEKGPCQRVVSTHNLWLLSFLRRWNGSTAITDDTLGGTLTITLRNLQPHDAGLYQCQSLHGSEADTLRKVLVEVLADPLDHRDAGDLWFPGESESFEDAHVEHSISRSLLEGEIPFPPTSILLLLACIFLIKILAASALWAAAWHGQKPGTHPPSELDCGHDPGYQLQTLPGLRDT
Assay: FACS, hTREM2 expressing cell line
Measured attribute: pKd
Answers are plain numbers, as −log10 of the molar value.

Please review the entries below; each comes with its answer.
1) AL2p-47 (antibody, V domains shown, Fab and IgG formats under one id (explicit huIgG1 is m97); also called AL2-47) VH: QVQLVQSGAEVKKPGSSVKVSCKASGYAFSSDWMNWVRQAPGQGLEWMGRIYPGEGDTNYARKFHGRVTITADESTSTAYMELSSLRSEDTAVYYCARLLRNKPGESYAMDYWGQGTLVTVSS VL: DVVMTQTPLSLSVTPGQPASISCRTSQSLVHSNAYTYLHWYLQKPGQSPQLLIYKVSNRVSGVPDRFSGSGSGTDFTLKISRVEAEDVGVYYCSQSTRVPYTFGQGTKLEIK : 8.91
2) AL2p-31 (antibody, V domains shown, Fab and IgG formats under one id) VH: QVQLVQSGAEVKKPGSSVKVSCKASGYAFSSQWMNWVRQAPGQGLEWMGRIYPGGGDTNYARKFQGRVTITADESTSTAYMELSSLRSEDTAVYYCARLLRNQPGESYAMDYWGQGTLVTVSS VL: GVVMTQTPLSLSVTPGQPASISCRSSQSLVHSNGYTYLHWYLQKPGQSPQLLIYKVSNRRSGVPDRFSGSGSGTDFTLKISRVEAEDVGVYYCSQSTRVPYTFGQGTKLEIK : 9.25
3) AL2p-58 (antibody, V domains shown, Fab and IgG formats under one id (explicit huIgG1 is m95, PSEG is m96)) VH: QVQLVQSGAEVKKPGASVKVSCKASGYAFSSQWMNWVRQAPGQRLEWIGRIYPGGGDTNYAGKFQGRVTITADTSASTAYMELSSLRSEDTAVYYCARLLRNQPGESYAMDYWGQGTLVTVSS VL: DVVMTQSPDSLAVSLGERATINCRSSQSLVHSNRYTYLHWYQQKPGQSPKLLIYKVSNRFSGVPDRFSGSGSGTDFTLKISRVEAEDVGVYYCSQSTRVPYTFGQGTKLEIK : 9.29

Now consider the entry below.
Reported pKd ( AL2p (parental mouse anti-TREM2 antibody) (antibody, V domains shown, Parental mouse antibody; Fab and IgG formats under one id; also called 9F5; 9F5a) VH: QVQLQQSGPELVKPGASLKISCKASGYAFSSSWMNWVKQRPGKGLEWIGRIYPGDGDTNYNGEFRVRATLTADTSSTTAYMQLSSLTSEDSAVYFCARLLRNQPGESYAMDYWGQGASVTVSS VL: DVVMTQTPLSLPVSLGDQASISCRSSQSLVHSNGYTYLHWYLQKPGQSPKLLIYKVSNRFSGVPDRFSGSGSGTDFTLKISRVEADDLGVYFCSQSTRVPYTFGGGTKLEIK ) = 8.52
